experiment: growth inhibitors of H69AR lung tumor, primary screen, human, duplicate replicates (AID 580); conditions: H69AR lung tumor cells viability, ATP luminescence, 72 h; at 10 µM; active compounds read low
# strict inequality: viability < 90% yields true, everything else yields false

Some solved cases for reference:
{"compound": "Cc1cc(C)n(S(=O)(=O)c2cc(C(=O)O)c(Cl)cc2Cl)n1", "category_label": "true"}
{"compound": "CCSc1nnc(NC(=O)c2cc(C)oc2C)s1", "category_label": "false"}

Find out if reported viability for `O=C(CCn1c(=O)oc2ccccc21)N1CCN(c2ccccc2Cl)CC1` is less than 90% true

Repeat with `CCOC(=O)c1ccccc1NC(=O)c1c(O)c2ccccc2n(CC)c1=O` true

Repeat with `S=C(c1ccc(N2CCOCC2)cc1)N1CCCCC1` false

Repeat with CC(CN1CCCCC1)OC(=O)c1ccc2c(c1)OCO2 (configuration not stated) false

Repeat with `COc1ccccc1-c1coc2c(CN3CCN(CCO)CC3)c(O)ccc2c1=O` false

Repeat with CCC(CC)C1C(C#N)=C(N)Oc2n[nH]c(C)c21 (configuration not stated) true

The reported numbers originate from PubChem BioAssay.
